system: 817829-284-R-J1-PDC complex spheroid viability; assay: Anticancer human tumor 817829-284-R-J1-PDC patient-derived colon adenocarcinoma cell line growth inhibition [POLQ]; conditions: curve of first compound; second compound 3.16 µM
pIC50: −log10 of the molar value.
PROPERTY_NAME: pIC50

compound="CCc1cc2c(N3CCc4c(cc(Cn5ccnc5)cc4-c4cn(C)nc4C(F)(F)F)C3=O)cc(C)nc2c(OC)n1 + Cc1cccc(N(C)C(=O)C2C(O)CCN2c2nc(C)cc(C(F)(F)F)c2C#N)c1" comparator== result_value=5.57
compound="CCc1cc2c(N3CCc4c(cc(Cn5ccnc5)cc4-c4cn(C)nc4C(F)(F)F)C3=O)cc(C)nc2c(OC)n1 + Nc1ccc(C#CCN(C(=O)Cc2ncc(C(F)(F)F)cc2C(F)(F)F)c2ccc(F)cc2)nn1" comparator== result_value=6.01
compound="Cn1ncnc1[C@H]1c2n[nH]c(=O)c3cc(F)cc(c23)N[C@@H]1c1ccc(F)cc1 + Cc1cccc(N(C)C(=O)C2C(O)CCN2c2nc(C)cc(C(F)(F)F)c2C#N)c1" comparator== result_value=7.92
compound="C=CC(=O)N1CCN(c2nc(=O)n(-c3c(C)ccnc3C(C)C)c3nc(-c4c(O)cccc4F)c(F)cc23)C(C)C1 (stereo not given) + COC1C(OC(N)=O)C(O)C(Oc2ccc3c(O)c(NC(=O)c4ccc(O)c(CC=C(C)C)c4)c(=O)oc3c2C)OC1(C)C" comparator=< result_value=5.00
compound="COc1cccc(OCCCN)c1-c1cc(Nc2cnc(C#N)cn2)n[nH]1 + COC1C(OC(N)=O)C(O)C(Oc2ccc3c(O)c(NC(=O)c4ccc(O)c(CC=C(C)C)c4)c(=O)oc3c2C)OC1(C)C" comparator=> result_value=8.50

###

tested on: 817829-284-R-J1-PDC complex spheroid viability; assay: Anticancer human tumor 817829-284-R-J1-PDC cell line growth inhibition [POLQ]; conditions: second compound 0.316 µM; first compound 0.1 µM; active means viability on the fitted dose curve at most 10% of control; inactive means the rest;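 also: spheroids exposed to compounds for 7 days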
Classes used: active, inactive

molecule="CC1COCCN1c1cc(-c2ccnn2C)c2ccnc(-c3ccn[nH]3)c2n1 (stereo unspecified) + Nc1ccc(C#CCN(C(=O)Cc2ncc(C(F)(F)F)cc2C(F)(F)F)c2ccc(F)cc2)nn1" label=inactive
molecule="CNCc1ccc(-c2[nH]c3cc(F)cc4c3c2CCNC4=O)cc1 + Cc1cccc(N(C)C(=O)C2C(O)CCN2c2nc(C)cc(C(F)(F)F)c2C#N)c1" label=inactive
molecule="Cn1ncnc1[C@H]1c2n[nH]c(=O)c3cc(F)cc(c23)N[C@@H]1c1ccc(F)cc1 + Nc1ccc(C#CCN(C(=O)Cc2ncc(C(F)(F)F)cc2C(F)(F)F)c2ccc(F)cc2)nn1" label=inactive
molecule="CCc1cc2c(N3CCc4c(cc(Cn5ccnc5)cc4-c4cn(C)nc4C(F)(F)F)C3=O)cc(C)nc2c(OC)n1 + Cc1cccc(N(C)C(=O)C2C(O)CCN2c2nc(C)cc(C(F)(F)F)c2C#N)c1" label=inactive
molecule="CCc1c2c(nc3ccc(O)cc13)-c1cc3c(c(=O)n1C2)COC(=O)[C@]3(O)CC + COC1C(OC(N)=O)C(O)C(Oc2ccc3c(O)c(NC(=O)c4ccc(O)c(CC=C(C)C)c4)c(=O)oc3c2C)OC1(C)C" label=active
molecule="CCc1c2c(nc3ccc(O)cc13)-c1cc3c(c(=O)n1C2)COC(=O)[C@]3(O)CC + Nc1ccc(C#CCN(C(=O)Cc2ncc(C(F)(F)F)cc2C(F)(F)F)c2ccc(F)cc2)nn1" label=active
molecule="CC[C@@]1(O)C(=O)OCc2c1cc1n(c2=O)Cc2cc3c(CN(C)C)c(O)ccc3nc2-1 + COC1C(OC(N)=O)C(O)C(Oc2ccc3c(O)c(NC(=O)c4ccc(O)c(CC=C(C)C)c4)c(=O)oc3c2C)OC1(C)C" label=inactive
molecule="Nc1ccn(C2OC(CO)C(O)C2(F)F)c(=O)n1 (stereo unspecified) + Cc1cccc(N(C)C(=O)C2C(O)CCN2c2nc(C)cc(C(F)(F)F)c2C#N)c1" label=active
molecule="CCc1cc2c(N3CCc4c(cc(Cn5ccnc5)cc4-c4cn(C)nc4C(F)(F)F)C3=O)cc(C)nc2c(OC)n1 + Nc1ccc(C#CCN(C(=O)Cc2ncc(C(F)(F)F)cc2C(F)(F)F)c2ccc(F)cc2)nn1" label=inactive
molecule="COc1cccc2c1C(=O)c1c(O)c3c(c(O)c1C2=O)CC(O)(C(=O)CO)CC3OC1CC(N)C(O)C(C)O1 (stereo unspecified) + COC1C(OC(N)=O)C(O)C(Oc2ccc3c(O)c(NC(=O)c4ccc(O)c(CC=C(C)C)c4)c(=O)oc3c2C)OC1(C)C" label=inactive
molecule="CCCS(=O)(=O)Nc1ccc(F)c(C(=O)c2c[nH]c3ncc(-c4ccc(Cl)cc4)cc23)c1F + COC1C(OC(N)=O)C(O)C(Oc2ccc3c(O)c(NC(=O)c4ccc(O)c(CC=C(C)C)c4)c(=O)oc3c2C)OC1(C)C" label=inactive
